The reported measurements were obtained from patent US20150376235A1.

# assay_method_text: Pharmacokinetic study following intravenous and oral administration, LC-MS/MS of plasma
# Type: in vivo, male Sprague Dawley rat
# run_conditions: male, Sprague-Dawley, rat, plasma, po, 1 mg/kg, oral 1 mg/kg, 0.25 h, individual animals 004M, 005M, 006M, read-out: plasma concentration
measurement_label: level at 0.25 h

Exercise: Find the measured level at 0.25 h of C[C@H](O)[C@@H](N)C(=O)N[C@@H](C(=O)N[C@H](CC(N)=O)C(=O)N[C@H](Cc1ccc(O)cc1)C(=O)N[C@@H](C(=O)O)[C@H](C)O)[C@H](C)O and report it.
Key: 6.42 ng/mL
